# assay_target: T1, human A-beta(1-40) peptide, monomeric (BAM) (human, biotin at the C-terminus in capture ELISA, SPR and TR-FRET; not biotinylated where coated directly (Example 7))
# T1 construct: synthetic peptide (Anaspec), TFA/HFIP treated to give monomer; also called monomeric A-beta
# test: TR-FRET competition, mean IC50
result_type: pIC50
The meaning of pIC50 here: minus log10 of the concentration in molar units.

Consider the binder ABII054 (VHH, humanized variant of ABII050) VHH: EVQLLESGGGLVQPGGSLRLSCAASGRTFNNYNMGWFRQAPGKGREFVAAVSRSGVSTYYADSVKGRFTISRDNAKNALYLQMNSLRPEDTAIYYCGAAYRGTAINVRRSYDSWGQGTLVTVSS and give its measured pIC50.
7.29

Endpoint output: pIC50 of ABII055 (VHH, humanized variant of ABII050) VHH: EVQLLESGGGLVQPGGSLRLSCAASGRTFNNYNMGWFRQAPGKGREFVAAVSRSGVSTYYADSVKGRFTISRDNAKNAVYLQMNSLRPEDTAVYYCGAAYRGTAINVRRSYDSWGQGTLVTVSS . Value?
7.66

So what's the measured pIC50 for this one? ABII036 (VHH, humanized variant of ABII002) VHH: EVQLLESGGGLVQPGGSLRLSCVHSGPTFRTDTMGWFRQAPGKGREFVAAVTWNSGRINYADSVKGRFTISRDNSKNTAYLQMSSLRPEDTAVYYCAAHRFVVGGNRVEDWRYWGQGTLVTVSS
8.46

Please report the recorded pIC50 for ABII035 (VHH, humanized variant of ABII002) VHH: EVQLLESGGGLVQPGGSLRLSCVHSGPTFRTDTMGWFRQAPGKGREFVAAVTWNSGRINYADSVKGRFTISRDNSKNTAYLQMNSLRPEDTAVYYCAAHRFVVGGNRVEDWRYWGQGTLVTVSS .
8.40

Given the binder ABII022 (VHH, humanized variant of ABII002) VHH: EVQLLESGGGLVQPGGSLRLSCAHSGPTFRTDTMGWFRQAPGKGREFVAAVTWNSGRINYADSVKGRFTISRDNSKNAVYLQMSSLRPEDTAVYYCAAHRFVVGGNRVEDWRYWGQGTLVTVSS , what is its reported pIC50?
7.80

Any idea what pIC50 was measured for ABII008 (VHH, humanized variant of ABII002) VHH: EVQLLESGGGLVLPGGSLRLSCVHSGPTFRTDTMGWFRQAPGKGREFVAAVTWNSGRINYADSVKGRFTVSRDNSRNAAYLQMSGLKDEDTAVYYCTAHRFVVGGNRVEDWRYWGQGTLVTVSS ?
8.72

Please report the recorded pIC50 for ABII031 (VHH, humanized variant of ABII002) VHH: EVQLLESGGGLVQPGGSLRLSCVHSGPTFRTDTMGWFRQAPGKGREFVAAVTWNSGRINYADSVKGRFTISRDNSKNAVYLQMSSLRPEDTAVYYCAAHRFVVGGNRVEDWRYWGQGTLVTVSS .
7.89

Would you mind telling me what pIC50 value was observed for ABII051 (VHH, humanized variant of ABII050) VHH: EVQLLESGGGLVQPGGSLRLSCAASGRTFNNYNMGWFRQAPGKGREFVAAVSRSGVSTYYADSVKGRFTISRDNAKNAVYLQMNSLRPEDTAIYYCGAAYRGTAINVRRSYDSWGQGTLVTVSS ?
7.74

Reference source for all entries: patent US20120058118A1
